# Assay Method Text: NCI Yeast Anticancer Drug Screen. Data for the mlh1 rad18 strain (AID 175)
# Conditions Used: S. cerevisiae mlh1 rad18 strain growth inhibition; at 50.0 µM; stronger effect = higher value
About 79,000 compounds went through this panel and 15% of them were active in at least one assay; those are over-represented in the sample as a whole.
Readout Label: growth inhibition (%)

Molecule	Experimental Result
CC#CC#C/C=C1/C=CC2(CC=CO2)O1 (centres undefined)	29.6
CSC(SC)=C1CCCC(=C(SC)SC)C1=O	-8.9
CCCn1c(C)nc2cc(C(F)(F)F)cc(N)c21	5.5
OC1CN(c2ccccc2)CC(O)CN(c2ccccc2)C1 (centres undefined)	6.2
CC(C)CCC[C@@H](C)[C@H]1CC[C@@]2(C)[C@@H]3CC[C@@H]4C(=O)CC[C@]4(C)[C@H]3CC[C@]12C	42.1
CCC1(C)C(=O)c2ccccc2N(C)C1=O (centres undefined)	-6.25
CC(=O)/C(=C/N1C(=O)CC(=O)NC1=S)C(=O)Nc1ccccc1	-20.7
O=C(Nc1ccc(S(=O)(=O)NC2CCCCC2)cc1)OC(c1ccccc1)c1ccccc1	1.45
CC[C@H]1OC(=O)[C@H](C)[C@@H](OC2CC(C)(OC)C(O)C(C)O2)[C@H](C)[C@@H](OC2OC(C)CC(N(C)C)C2OC(=O)CCC2CCCC2)[C@](C)(O)C[C@@H](C)C(=O)[C@H](C)[C@@H](O)[C@]1(C)O (some centres undefined)	-9.55

---

Consider the following molecules and their measured growth inhibition readings.
# Assay Method Text: NCI Yeast Anticancer Drug Screen. Data for the cln2 rad14 strain (AID 165);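 further: 0% = growth equal to vehicle treated cultures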
# Conditions Used: S. cerevisiae cln2 rad14 strain, at 50.0 µM, stronger effect = higher value
This is part of a sample that, as a whole, favours compounds with a hit. Of some 79,000 tested, about 15% had one in any assay.
Readout Label: growth inhibition (%)

Molecule	Experimental Result
CCOC(=O)c1ccc(NC(=O)c2ccc(Cl)cc2Cl)cc1	-18.1
CCCCCCCOC(=O)COc1ccc(Cl)cc1Cl	1.25
CC(=O)c1cc2c(cc1C)C(C)(C)CCC2C (stereo not given)	-5
O=[N+]([O-])c1ccc(C2ON2c2ccccc2)cc1 (stereo not given) (tested in a mixture with another compound)	-9.7
OCCCCN1CCCCC1	2.5
O=C(O)C1C2C=CC(O2)C1C(=O)Nc1ccccc1 (stereo not given)	-1.9
Cc1cc(Nc2ccc(S(=O)(=O)O)c3cc(S(=O)(=O)O)cc(S(=O)(=O)O)c23)c2ccccc2n1	-10.9
CCSc1nc(C)nc2c1cnn2-c1ccccc1	-35.6
CC(=O)OC1C(C)OC(OC(=O)C2CCC3C(C2)OC2(CC(OC(=O)/C=C/c4ccccc4)C(C)CO2)C32CO2)C(OC2OC(C)C(O)C(O)C2O)C1O (stereo not given)	13.5
O=C(/C=C\c1ccccc1)C(C(=O)/C=C/c1ccccc1)C(=O)c1ccccc1 (stereo not given)	14.9

---

Recorded measurements of growth inhibition, one per entry
# Assay Method Text: NCI Yeast Anticancer Drug Screen. Data for the sgs1 mgt1 strain (AID 161);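 further: 0% = growth of cultures given vehicle only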
# Conditions Used: S. cerevisiae sgs1 mgt1 strain, at 50.0 µM, stronger effect = higher value
The panel holds about 79,000 compounds, 15% with a hit somewhere; the sample as a whole holds those more often.

Compound	growth inhibition / %
COC(=O)C12C=CC(C1)n1c(=O)n(-c3ccccc3)c(=O)n12 (stereo unspecified)	0.5
O=C1NC(c2ccccc2)(c2ccccc2)C(=O)N1CCCCCCN1C(=O)NC(c2ccccc2)(c2ccccc2)C1=O	4
COC(=O)C(=O)C(C(=O)C1=NS(=O)(=O)c2cc(S(N)(=O)=O)c(Cl)cc2N1)c1nc2ccc(C(=O)c3ccccc3)cc2[nH]c1=O (stereo unspecified)	-18
CCOc1c(OC)cc(-c2nc3n(n2)C(=O)C(CC)S3)cc1OC (stereo unspecified)	-41.3
Cn1ncnc1CCc1ccccc1	-40.5
c1cncc(-c2c3ccccc3cc3ccccc23)c1	2.8
O=Cc1ccc(C(=O)O)cc1	0.25
CCOc1ccccc1C(=O)N(CC)CC	-4.6
COC(=O)C1=C(C(=O)OC)C(C)(C)N=N1	12.7
CCCCCCCCCCCCCCCC/C(C)=C\C(=O)OC	22.9
O=C1c2ccccc2C(=O)c2nc3ccc(Cl)cc3cc21	1.35
